Reported enzyme activity values for a set of molecules
# Tested on: Lymphs
# PROTOCOL DESCRIPTION: Peptidases to distinguish leukemia from non-leukemia, lymphocytes
# Format: cell-based, human
# Parameters: unit not given here
# EXPERIMENTAL CONDITIONS: J4 11/21/91 acute leuk.
# Description: Artificial intelligence was used to analyze data of cellular enzyme functions, and determine normal and disease states. Peptidases were used to distinguish leukemia from non-leukemia (output pattern). For input patterns lymphocyte and granulocyte cell types were used with aminopeptidases, cathepsins and dipeptidylpeptidase enzyme activities. […]
Just the number, please, no unit attached.

Use the examples below as a reference point.
NCCCC[C@H](N)C(=O)Nc1ccc2c(c1)Oc1cc(NC(=O)[C@@H](N)CCCCN)ccc1C21OC(=O)c2ccccc21 [LYS, (H--L--Lys)2 Rho 110-4TFA]
0.77
O=C1OC2(c3ccc(NC(=O)[C@@H]4CCCN4)cc3Oc3cc(NC(=O)[C@@H]4CCCN4)ccc32)c2ccccc21 [PRO, (H--L--Pro)2 Rho 110-2TFA]
0.47

Entry NCC(=O)Nc1ccc2c(c1)Oc1cc(NC(=O)CN)ccc1C21OC(=O)c2ccccc21 [GLY, (Gly)2 Rho 110] ; enzyme activity = 14.02

Lab book: enzyme activity of NCC(=O)N1CCC[C@H]1C(=O)Nc1ccc2c(c1)Oc1cc(NC(=O)[C@@H]3CCCN3C(=O)CN)ccc1C21OC(=O)c2ccccc21 [GP] noted as 2.72

What the record says about C[C@H](N)C(=O)Nc1ccc2c(c1)Oc1cc(NC(=O)[C@H](C)N)ccc1C21OC(=O)c2ccccc21 [ALA, (Ala)2 Rho 110] : enzyme activity is 86.00

Value of measured enzyme activity for the entry CC(C)[C@H](N)C(=O)N[C@@H](CO)C(=O)Nc1ccc2c(c1)Oc1cc(NC(=O)[C@H](CO)NC(=O)[C@@H](N)C(C)C)ccc1C21OC(=O)c2ccccc21 [VS, (H--L--Val--Ser)2 Rho 110-2TFA] : 0.05

---

# Test system: Lymphs
# PROTOCOL DESCRIPTION: Peptidases to distinguish leukemia from non-leukemia, lymphocytes
# Format: cell-based, human
# Set-up: unit not given here
# EXPERIMENTAL CONDITIONS: P71 ac. pyelonephritis
Please use YES whenever enzyme activity is not below 2, and NO whenever it is.

Identify whether the reported enzyme activity of the following molecule is 2 or greater: CC(C)C[C@H](N)C(=O)NCC(=O)Nc1ccc2c(c1)Oc1cc(NC(=O)CNC(=O)[C@@H](N)CC(C)C)ccc1C21OC(=O)c2ccccc21 [LG] NO

Identify whether the reported enzyme activity of the following molecule is 2 or greater: NCC(=O)N1CCC[C@H]1C(=O)Nc1ccc2c(c1)Oc1cc(NC(=O)[C@@H]3CCCN3C(=O)CN)ccc1C21OC(=O)c2ccccc21 [GP] YES

Test whether the molecule C[C@H](N)C(=O)Nc1ccc2c(c1)Oc1cc(NC(=O)[C@H](C)N)ccc1C21OC(=O)c2ccccc21 [ALA, (Ala)2 Rho 110] records enzyme activity of 2 or higher. YES

Tell me whether enzyme activity is at least 2 here: C[C@@H](O)[C@H](N)C(=O)N1CCC[C@H]1C(=O)Nc1ccc2c(c1)Oc1cc(NC(=O)[C@@H]3CCCN3C(=O)[C@@H](N)[C@@H](C)O)ccc1C21OC(=O)c2ccccc21 [TP] NO

Quick check: does NCCCC[C@H](N)C(=O)Nc1ccc2c(c1)Oc1cc(NC(=O)[C@@H](N)CCCCN)ccc1C21OC(=O)c2ccccc21 [LYS, (H--L--Lys)2 Rho 110-4TFA] have enzyme activity greater than or equal to 2? NO

Kindly determine if enzyme activity recorded for NC(=O)CC[C@H](N)C(=O)N[C@@H](CO)C(=O)Nc1ccc2c(c1)Oc1cc(NC(=O)[C@H](CO)NC(=O)[C@@H](N)CCC(N)=O)ccc1C21OC(=O)c2ccccc21 [QS, (H--L--Gln--Ser)2 Rho 110-2TFA] is above or exactly 2. NO
